Just for reference, patent US7223781B2 is where these values come from.

Biological target: COX-1 (Sus scrofa, UniProt A0A287ANF9)
Construct: A platelet suspension obtained from pig's blood is preincubated with the test substance; endogenous in cells; host or cells: platelets from pig's blood
Sequence (A0A287ANF9 25-600): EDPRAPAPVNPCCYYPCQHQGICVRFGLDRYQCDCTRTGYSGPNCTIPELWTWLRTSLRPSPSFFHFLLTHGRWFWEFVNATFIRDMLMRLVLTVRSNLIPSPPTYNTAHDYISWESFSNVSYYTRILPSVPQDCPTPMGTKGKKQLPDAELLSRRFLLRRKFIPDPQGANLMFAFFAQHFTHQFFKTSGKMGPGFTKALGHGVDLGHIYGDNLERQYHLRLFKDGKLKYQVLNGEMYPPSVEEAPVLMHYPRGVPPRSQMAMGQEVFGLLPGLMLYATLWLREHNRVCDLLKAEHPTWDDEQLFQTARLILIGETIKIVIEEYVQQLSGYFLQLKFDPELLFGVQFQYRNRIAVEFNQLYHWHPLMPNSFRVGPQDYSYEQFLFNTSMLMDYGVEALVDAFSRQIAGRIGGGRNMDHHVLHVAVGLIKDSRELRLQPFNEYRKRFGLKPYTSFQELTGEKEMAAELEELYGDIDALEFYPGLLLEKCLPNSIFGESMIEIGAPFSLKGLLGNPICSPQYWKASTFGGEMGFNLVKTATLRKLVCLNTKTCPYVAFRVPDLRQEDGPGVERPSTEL
Test: In-vitro test for COX-1 inhibition: fluorimetric quantification of malonaldehyde (MDA) in A23187-activated pig platelet suspension
Format: cell-based
Settings: Table 8, arylsulfonamides; pig platelets; read-out: MDA pIC50 (converted)
Readout Label: log10(IC50) (log10 of the value in nM)
Please be aware that the numbers have been log10-transformed from IC50 in nM.

Take a look at these entries with their results.
{"Molecule": "COc1ccc(-c2[nH]c(SCCNS(=O)(=O)c3ccc(Cl)cc3)nc2-c2ccc(Cl)cc2)cc1 [Compound T111]", "Recorded Number": 2.11}
{"Molecule": "COc1ccc(-c2nc(SCCNS(=O)(=O)c3ccc(NC(C)=O)cc3)[nH]c2-c2ccc(OC)cc2)cc1 [Compound T27]", "Recorded Number": 1.26}
{"Molecule": "COc1ccc(-c2nc(SCCNS(=O)(=O)c3cc(C(F)(F)F)cc(C(F)(F)F)c3)[nH]c2-c2ccc(OC)cc2)cc1 [Compound T22]", "Recorded Number": 2.61}

In: Give the measured log10(IC50) of COc1ccc(-c2nc(SCCNS(=O)(=O)c3c(C)cc(C)cc3C)[nH]c2-c2ccc(OC)cc2)cc1 [Compound T25] .
Out: 2.51

In: Give the measured log10(IC50) of COc1ccc(-c2nc(SCCNS(=O)(=O)c3ccc(Cl)cc3)[nH]c2-c2ccc(OC)cc2)cc1 [Compound T18] .
Out: 2.45

---

Target: COX-1 (Sus scrofa)
Construct: A platelet suspension obtained from pig's blood is preincubated with the test substance; endogenous in cells; host or cells: platelets from pig's blood
Assay: In-vitro test for COX-1 inhibition: fluorimetric quantification of malonaldehyde (MDA) in A23187-activated pig platelet suspension
Format: cell-based
Conditions: Table 14, sulfones and their sulfide analogs; pig platelets; read-out: MDA IC50
Description: In-vitro Test Procedure for the Determination of COX-1 Inhibition The inhibition of the cyclooxygenase pathway is carried out by fluorimetric quantification of malonaldehyde (MA). This condenses in the acidic medium with twice the molar amount of thiobarbituric acid to give a red pigment dye, which has a fluorescence at λExcitation: 533 nm, λEmission: 550 nm. A platelet suspension obtained from pig's blood is preincubated with the test substance for 10 min at 37° C. […]
Measured IC50 accompanies every entry in the list below.
Response body: numeric value in nM, unit text excluded.

{"Compound": "COc1ccc(-c2nc(S(=O)(=O)Cc3ccccn3)[nH]c2-c2ccc(OC)cc2)cc1 [Compound T74]", "Readout Label": "IC50", "Unit Of Measure": "nM", "Recorded Number": 81}

Now for another entry.
In: Give the measured IC50 of CCOC(=O)CS(=O)(=O)c1nc(-c2ccc(OC)cc2)c(-c2ccc(OC)cc2)[nH]1 [Compound T80] .
Out: 7.5

---

Molecular target: COX-1 (Sus scrofa, UniProt A0A287ANF9)
Construct: A platelet suspension obtained from pig's blood is preincubated with the test substance; endogenous in cells; host or cells: platelets from pig's blood
Assay: In-vitro test for COX-1 inhibition: fluorimetric quantification of malonaldehyde (MDA) in A23187-activated pig platelet suspension
Type: cell-based
Details: Table 15, N,N-acetamides; pig platelets; read-out: MDA IC50
Readout Label: IC50 (µM)
Response body: numeric value in µM, unit text excluded.

In: Give the measured IC50 of CC(Sc1nc(-c2ccc(Cl)cc2)c(-c2ccc(Cl)cc2)n1C)C(=O)N(C)C (stereo not shown) [Compound T88] .
Out: 5.2

---

Molecular target: COX-2 (Homo sapiens, UniProt P35354)
Construct: endogenous in cells; host or cells: LPS-stimulated human monocytes (Ficoll extraction)
Sequence (P35354 18-604): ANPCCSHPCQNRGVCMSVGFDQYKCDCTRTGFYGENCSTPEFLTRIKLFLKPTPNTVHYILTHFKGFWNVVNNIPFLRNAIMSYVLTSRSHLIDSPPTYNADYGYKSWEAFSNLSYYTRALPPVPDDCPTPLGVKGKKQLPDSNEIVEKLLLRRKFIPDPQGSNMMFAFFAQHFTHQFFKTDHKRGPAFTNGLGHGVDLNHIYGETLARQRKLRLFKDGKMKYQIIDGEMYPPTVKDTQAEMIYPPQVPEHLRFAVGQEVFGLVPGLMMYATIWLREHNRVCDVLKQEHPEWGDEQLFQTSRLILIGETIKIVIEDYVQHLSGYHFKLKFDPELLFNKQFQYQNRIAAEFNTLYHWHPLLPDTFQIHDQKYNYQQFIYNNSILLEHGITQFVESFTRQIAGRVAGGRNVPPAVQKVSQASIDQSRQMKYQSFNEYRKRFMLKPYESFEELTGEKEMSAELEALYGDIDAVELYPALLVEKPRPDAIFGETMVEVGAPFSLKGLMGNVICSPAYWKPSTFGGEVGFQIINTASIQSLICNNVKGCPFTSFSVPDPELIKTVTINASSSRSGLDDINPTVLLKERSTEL
Test: In-vitro test for COX-2 inhibition: PGE2 ELISA in LPS-stimulated human monocytes
Type: cell-based
Settings: Table 18; LPS-stimulated human monocytes, PGE2; read-out: COX-2 inhibition IC50
Description: In-vitro Test Procedure for the Determination of COX-2 Inhibition The procedure is carried out on LPS-stimulated human monocytes which have been obtained by Ficoll extraction. The measurement variable used is the PGE2 formed, which is determined by means of ELISA.
Measured IC50 accompanies every entry in the list below.
Response body: numeric value in nM, unit text excluded.

In: Give the measured IC50 of COc1ccc(-c2nc(SC(C(C)=O)C(=O)N(C)C)[nH]c2-c2ccc(OC)cc2)cc1 (stereo not drawn) .
Out: 500

In: Give the measured IC50 of COc1ccc(-c2nc(SCCN(C)C(=O)c3ccccc3)n(C)c2-c2ccc(OC)cc2)cc1 .
Out: 910

In: Give the measured IC50 of COc1ccc(-c2[nH]c(SCCNS(=O)(=O)c3ccc(Cl)cc3)nc2-c2ccc(Cl)cc2)cc1 .
Out: 800
